Assay: folding enthalpy; higher = less favourable; fluorescence melt of hairpins on a sequencing array, two-state fit
Conditions: sodium 0.088 M
quantityKind: folding enthalpy (kcal/mol)

itemSequence: GATCGGCAGGCCGATC ((((((....))))))
quantityKind: folding enthalpy
unitAnnotation: kcal/mol
numericValue: -34.9
//
itemSequence: GTGTTGCGAAAGCAGCAC (((.(((....))).)))
quantityKind: folding enthalpy
unitAnnotation: kcal/mol
numericValue: -30.2
//
itemSequence: GTAATTCGAAAGAATAC (((.(((....))))))
quantityKind: folding enthalpy
unitAnnotation: kcal/mol
numericValue: -15.2
//
itemSequence: GGAAGCGAAAGCTGATCC ((((((....)))..)))
quantityKind: folding enthalpy
unitAnnotation: kcal/mol
numericValue: -12.4
//
itemSequence: GGCTAGGGAAACCCAGCC ((((.((....)).))))
quantityKind: folding enthalpy
unitAnnotation: kcal/mol
numericValue: -39.4
//
itemSequence: GAGCGAGGAAACTCGTTC ((.((((....)))).))
quantityKind: folding enthalpy
unitAnnotation: kcal/mol
numericValue: -27
//
itemSequence: GCCCACGGAAACGCGGGC ((((.((....)).))))
quantityKind: folding enthalpy
unitAnnotation: kcal/mol
numericValue: -47.5
//
itemSequence: GATAGCGGAAACACTATC (((((.(....).)))))
quantityKind: folding enthalpy
unitAnnotation: kcal/mol
numericValue: -27.6
//
itemSequence: GCACCCGAAAGGGGTTGC ((((((....)))..)))
quantityKind: folding enthalpy
unitAnnotation: kcal/mol
numericValue: -15.4
//
itemSequence: GGTGCGGGAAACCGTACC (((.(((....))).)))
quantityKind: folding enthalpy
unitAnnotation: kcal/mol
numericValue: -44.7
//
itemSequence: GCCAAAGGAAACTCTGGC ((((.((....)).))))
quantityKind: folding enthalpy
unitAnnotation: kcal/mol
numericValue: -32.6
//
itemSequence: GGAGGTGGAAACATCTCC ((((.((....)).))))
quantityKind: folding enthalpy
unitAnnotation: kcal/mol
numericValue: -44.1
//
itemSequence: GTTGGAGGAAACTCTGAC ((..(((....)))..))
quantityKind: folding enthalpy
unitAnnotation: kcal/mol
numericValue: -21
//
itemSequence: GTGTGCCGAAAGGCCAC (((.(((....))))))
quantityKind: folding enthalpy
unitAnnotation: kcal/mol
numericValue: -20.6
//
itemSequence: GGACGTCGAAAGACTTCC (((.(((....))).)))
quantityKind: folding enthalpy
unitAnnotation: kcal/mol
numericValue: -29.9
//
itemSequence: GATCCCACAGGGGATC ((((((....))))))
quantityKind: folding enthalpy
unitAnnotation: kcal/mol
numericValue: -33.4
//
itemSequence: GTACACCGAAAGGTCTAC (((.(((....))).)))
quantityKind: folding enthalpy
unitAnnotation: kcal/mol
numericValue: -15.3
//
itemSequence: GAAAGCCGAAAGGCATTC (((.(((....))).)))
quantityKind: folding enthalpy
unitAnnotation: kcal/mol
numericValue: -15.2
//
itemSequence: GGACTCCGAAAGGAATCC (((.(((....))).)))
quantityKind: folding enthalpy
unitAnnotation: kcal/mol
numericValue: -30.5
//
itemSequence: GATCTCTCTGGAGATC ((((((....))))))
quantityKind: folding enthalpy
unitAnnotation: kcal/mol
numericValue: -42.8
//
itemSequence: GATCTGTACTCAGATC ((((((....))))))
quantityKind: folding enthalpy
unitAnnotation: kcal/mol
numericValue: -36.1
//
itemSequence: GATCGTCTCACGATC ((((((...))))))
quantityKind: folding enthalpy
unitAnnotation: kcal/mol
numericValue: -40.6
//
itemSequence: GCGATTGGAAACAACCGC (((.(((....))).)))
quantityKind: folding enthalpy
unitAnnotation: kcal/mol
numericValue: -32.7
//
itemSequence: GCATTACGAAAGTATGC (((.(((....))))))
quantityKind: folding enthalpy
unitAnnotation: kcal/mol
numericValue: -26.9
//
itemSequence: GATCTATAGCTAGATC ((((((....))))))
quantityKind: folding enthalpy
unitAnnotation: kcal/mol
numericValue: -28.7
